Tested on: HIV-1 virus
Test: Protective effect on CEM cells against infection by the HIV virus
Assay type: cell-based
Details: Human immunodeficiency virus 1, CCRF-CEM, HIV infection, method of WEISLOW et al.

{"columns": ["Compound", "EC50"],
 "data": [
  ["COCCCCCCCCCCCC(=O)N[C@@H](Cc1ccccc1)C(=O)O [Example 49, N-(12-METHOXYLAUROYL)-(S)-PHENYLALANINE]", "10 µM"]
]}

====

Target: cytosolic NMT (N-myristoyltransferase) of L1210 cells (Mus musculus, UniProt O70310)
Construct: The supernatant is then used as a source of NMT; endogenous in cells; host or cells: L1210 murine leukemia cells, cytosol (105,000 g supernatant)
Sequence (O70310 whole entry): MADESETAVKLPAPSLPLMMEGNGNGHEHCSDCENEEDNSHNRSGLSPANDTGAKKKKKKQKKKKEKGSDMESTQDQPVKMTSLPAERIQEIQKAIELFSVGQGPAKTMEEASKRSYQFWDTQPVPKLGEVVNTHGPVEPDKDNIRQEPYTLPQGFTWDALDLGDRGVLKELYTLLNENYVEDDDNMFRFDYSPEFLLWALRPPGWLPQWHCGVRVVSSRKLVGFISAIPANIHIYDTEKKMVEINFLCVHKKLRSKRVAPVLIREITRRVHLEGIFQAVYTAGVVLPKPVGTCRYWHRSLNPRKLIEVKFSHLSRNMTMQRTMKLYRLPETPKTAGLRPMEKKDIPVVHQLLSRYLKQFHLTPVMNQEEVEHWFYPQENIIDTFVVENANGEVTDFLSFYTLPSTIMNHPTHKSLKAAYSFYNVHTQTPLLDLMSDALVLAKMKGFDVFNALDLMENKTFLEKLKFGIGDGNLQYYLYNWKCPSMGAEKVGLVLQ
Assay: Inhibition of the cytosolic NMT activity of cancerous L1210 cells
Assay type: biochemical, murine
pIC50: −log10 of the molar value.
Result type: pIC50

{"columns": ["Compound", "Tested system", "Measured result"],
 "data": [
  ["CCCCCCCCCCCCCC(=O)NC(Cc1ccccc1)P(=O)(O)OCC (stereo not shown) [Example 16, ETHYL 1-MYRISTOYLAMINO-2-[…]]", "cytosolic NMT (N-myristoyltransferase) of L1210 cells (Mus musculus, UniProt O70310)", 5.70]
]}

Every entry's value here was drawn from patent US5266576A.
